Literature IC50 values, system: Sphingosine kinase 1 (Homo sapiens).

Completed entries (count: 4):
{"columns": ["MOLECULE", "IC50"],
 "data": [
  ["CC1(C)CCC(C)(C)c2cc(-c3csc(C4CCN(C(=O)[C@@H](N)CO)CC4)n3)ccc21", "1000 to 10000 nM"],
  ["CC1(C)CCCc2ccc(-c3cccc(N4CCN(CCCCO)CC4)n3)cc21", "> 1000 nM"],
  ["Cn1cncc1CNC1CCN(c2nc(-c3ccc4c(c3)C(C)(C)CCC4(C)C)cs2)CC1", "100 to 1000 nM"],
  ["CC1(C)CCCc2cc(-c3csc(C4CCN(CCCCCO)C4)n3)ccc21 (centres unmarked)", "100 to 1000 nM"]
]}

Now let's try a different one.
Lab note: need IC50 with Sphingosine kinase 1 (Homo sapiens) for entry CC1(C)CCC(C)(C)c2cc(-c3nc(C4CCNCC4)cs3)ccc21 , please look it up. 100 to 1000 nM

* * *

pIC50: −log10 of the molar value.
Literature pIC50 values, system: Sphingosine kinase 1 (Homo sapiens).

Completed entries (count: 3):
{"columns": ["COMPOUND_STRING", "pIC50"],
 "data": [
  ["CC1(C)CCC(C)(C)c2cc(-c3csc(N4CCC(N5CCN(CCO)CC5)CC4)n3)ccc21", "6.00 to 7.00"],
  ["CC1(C)CCC(C)(C)c2cc(-c3csc(C4CCN(CC(=O)N5CCOCC5)CC4)n3)ccc21", "5.00 to 6.00"],
  ["CC1(C)CCC(C)(C)c2cc(-c3cc(N4CCNCC4)ccn3)ccc21", "6.00 to 7.00"]
]}

Lab note: need pIC50 with Sphingosine kinase 1 (Homo sapiens) for entry CC1(C)CCC(C)(C)c2cc(-c3csc(C4CCN(CCCO)CC4)n3)ccc21 , please look it up. 5.00 to 6.00
